The measurements presented in this section are drawn from PubChem BioAssay AID651630.

# Test system: TAG
# Test name: TAG lipid buildup inhibition with viability readout – cell-based, panel, Nile Red and DAPI fluorescence, H9c2, dose response (AID 651630);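 note: cells exposed to compound overnight before fixation and staining; hits lower the Nile Red lipid signal and are scored as TAG inhibitors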
# Condition: H9c2 cells, Nile Red TAG fluorescence, oleic acid, mean of runs
Active and inactive are the calls of the source.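 Rule for the calls: active = lipid-stain IC50 at or below a set limit, with nuclear-stain toxicity IC50 at least five times higher; inactive = the rest.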
Reported IC50 values for a set of compounds
Value kind: IC50

- Compound: "FC(F)Oc1ccc(-c2csc(NNC3=NCCCCC3)n2)cc1"
  Measured target: "TAG"
  Value kind: "IC50"
  Observed: "2.55 µM"
- Compound: "CCOc1ccc(CCNC(=O)c2cc3sc(Cl)cc3n2C)cc1OCC"
  Measured target: "TAG"
  Value kind: "IC50"
  Observed: "5.75 µM"
- Compound: "O=c1c2c3nc4ccccc4nc3n(/N=C/c3ccccn3)c2ncn1-c1ccccc1"
  Measured target: "TAG"
  Value kind: "IC50"
  Observed: "2.48 µM"
- Compound: "C[C@H](CO)N1C[C@H](C)[C@@H](CN(C)Cc2ccc(-c3ccccc3)cc2)Oc2c(NC(=O)Cc3ccccc3)cccc2C1=O"
  Measured target: "TAG"
  Value kind: "IC50"
  Observed: "11.3 µM"
- Compound: "CC(=O)Nc1ccc(-c2ccnc3c2CC(C(=O)NCc2cccc(Cl)c2)O3)cc1 (centres undefined)"
  Measured target: "TAG"
  Value kind: "IC50"
  Observed: "13.3 µM"
- Compound: "COc1ccccc1NC(=O)N1CCC(c2nc3cc(C)c(C)cc3[nH]2)CC1"
  Measured target: "TAG"
  Value kind: "IC50"
  Observed: "> 25 µM (inactive)"
- Compound: "CCOC(=O)c1[nH]c(C)c(C(=O)Nc2ccccc2C)c1C"
  Measured target: "TAG"
  Value kind: "IC50"
  Observed: "> 25 µM (inactive)"
- Compound: "CCCCCc1cc(=O)oc2c(C(CCN3CCN(c4ccccc4)CC3)c3ccc4c(c3)OCO4)c(OC)cc(OC)c12 (centres undefined)"
  Measured target: "TAG"
  Value kind: "IC50"
  Observed: "8.04 µM"
- Compound: "CCCc1[nH]n(-c2ccc([N+](=O)[O-])cc2)c(=O)c1C=NCCc1c[nH]c2ccccc12"
  Measured target: "TAG"
  Value kind: "IC50"
  Observed: "11.9 µM"
- Compound: "Cc1[nH]c2ccccc2c1C(c1ccccn1)N1CCC(C)CC1 (centres undefined)"
  Measured target: "TAG"
  Value kind: "IC50"
  Observed: "15.5 µM (inactive)"
- Compound: "CCC(=NCCc1c(C)[nH]c2ccc(OC(F)(F)F)cc12)C1=C(O)CC(c2ccccc2)CC1=O (centres undefined)"
  Measured target: "TAG"
  Value kind: "IC50"
  Observed: "> 25 µM (inactive)"
- Compound: "CCCCCC(=C/c1ccccc1)/C=N/Nc1ccc(S(=O)(=O)N2CCOCC2)cc1[N+](=O)[O-]"
  Measured target: "TAG"
  Value kind: "IC50"
  Observed: "2.9 µM"
- Compound: "Cc1ccc2nc(NC(=O)CN(C)S(=O)(=O)c3cccc4nsnc34)sc2c1"
  Measured target: "TAG"
  Value kind: "IC50"
  Observed: "10.5 µM"
- Compound: "COc1ccc2[nH]c3c(c2c1)CCN1C(=O)C(CC(=O)NCc2cccc(C(F)(F)F)c2)C[C@H](C(=O)N2CCCCC2)[C@@]31CCc1ccccc1 (some centres undefined)"
  Measured target: "TAG"
  Value kind: "IC50"
  Observed: "10 µM"
- Compound: "CCOc1cc(C(=O)N/N=C/c2cn(-c3ccccc3)nc2-c2cc3ccccc3o2)cc(OCC)c1OCC"
  Measured target: "TAG"
  Value kind: "IC50"
  Observed: "10.2 µM"
- Compound: "Cc1nc(C(=O)Nc2ccccc2Cl)cc2c1[nH]c1ccccc12"
  Measured target: "TAG"
  Value kind: "IC50"
  Observed: "3.06 µM"
- Compound: "CSc1nc(N(C)NC(=O)c2ccc(Cl)cc2)c2ccccc2n1"
  Measured target: "TAG"
  Value kind: "IC50"
  Observed: "> 25 µM (inactive)"
- Compound: "CCOc1ccccc1NC(=O)CCC(=O)Nc1ccccc1OCC"
  Measured target: "TAG"
  Value kind: "IC50"
  Observed: "> 25 µM (inactive)"
- Compound: "CC(C)c1ccc(Nc2ncc3c(n2)CCN(C(=O)Nc2ccc(F)c(Cl)c2)C3)cc1"
  Measured target: "TAG"
  Value kind: "IC50"
  Observed: "4.65 µM"
